- STUDY_TARGET: Dimeric Monkey Ang-2FD conjugated to human IgG1 (monkey (Macca fascicularis))
- Sequence (chain, as listed by the source limits assumed): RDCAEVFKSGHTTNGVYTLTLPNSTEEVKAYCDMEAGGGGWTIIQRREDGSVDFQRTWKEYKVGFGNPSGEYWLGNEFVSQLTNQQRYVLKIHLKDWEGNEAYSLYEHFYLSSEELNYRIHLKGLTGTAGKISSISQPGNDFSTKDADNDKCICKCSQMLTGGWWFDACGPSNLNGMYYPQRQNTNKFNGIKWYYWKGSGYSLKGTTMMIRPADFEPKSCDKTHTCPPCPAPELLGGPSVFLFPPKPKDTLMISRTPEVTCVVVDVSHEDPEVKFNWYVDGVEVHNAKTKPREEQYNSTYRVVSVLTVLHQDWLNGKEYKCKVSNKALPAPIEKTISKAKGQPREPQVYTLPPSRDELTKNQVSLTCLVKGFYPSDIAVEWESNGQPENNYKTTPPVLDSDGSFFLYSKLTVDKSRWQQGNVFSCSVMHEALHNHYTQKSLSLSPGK
- EXPERIMENT_DESCRIPTION: SPR, human IgG1 antibody captured
ASSAY_READOUT: T1/2 (h)
# number only, unit h dropped from output

Some solved cases for reference:
Data request: Would you mind telling me what T1/2 value was observed for H1H732N (antibody, V domains shown) VH: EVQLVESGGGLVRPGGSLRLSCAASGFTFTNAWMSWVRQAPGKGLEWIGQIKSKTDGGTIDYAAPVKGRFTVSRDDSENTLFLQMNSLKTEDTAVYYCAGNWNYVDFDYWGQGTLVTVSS VL: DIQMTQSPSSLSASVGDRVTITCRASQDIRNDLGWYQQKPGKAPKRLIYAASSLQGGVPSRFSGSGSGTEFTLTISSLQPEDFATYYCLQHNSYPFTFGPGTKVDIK ?
Data returned: 1.97

Data request: Endpoint output: T1/2 of H1H743N (antibody, V domains shown) VH: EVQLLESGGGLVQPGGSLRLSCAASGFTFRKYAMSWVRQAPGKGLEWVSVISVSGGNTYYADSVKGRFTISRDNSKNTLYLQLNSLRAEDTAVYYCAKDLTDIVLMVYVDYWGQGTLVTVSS VL: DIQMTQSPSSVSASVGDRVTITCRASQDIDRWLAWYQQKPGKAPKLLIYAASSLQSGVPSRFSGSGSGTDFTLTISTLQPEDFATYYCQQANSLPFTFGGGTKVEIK . Value?
Data returned: 13

Data request: Quick check: T1/2 of H1H750N (antibody, V domains shown) VH: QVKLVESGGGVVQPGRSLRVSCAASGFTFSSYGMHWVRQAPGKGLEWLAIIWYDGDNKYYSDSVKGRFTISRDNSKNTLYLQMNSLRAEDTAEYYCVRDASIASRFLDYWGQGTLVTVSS VL: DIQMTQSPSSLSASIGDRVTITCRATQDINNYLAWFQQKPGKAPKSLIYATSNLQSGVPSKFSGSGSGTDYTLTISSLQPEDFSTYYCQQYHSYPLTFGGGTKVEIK ?
Data returned: 4.07

Data request: For the binder H1H724N (antibody, V domains shown) VH: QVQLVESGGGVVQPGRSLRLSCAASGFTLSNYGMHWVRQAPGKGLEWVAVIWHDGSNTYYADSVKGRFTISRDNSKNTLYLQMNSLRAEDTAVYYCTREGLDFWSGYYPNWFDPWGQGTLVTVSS VL: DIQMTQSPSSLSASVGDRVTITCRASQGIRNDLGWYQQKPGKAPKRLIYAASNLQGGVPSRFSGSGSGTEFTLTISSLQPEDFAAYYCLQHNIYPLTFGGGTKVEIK , what T1/2 is on record?
Data returned: 2.88

Now let's try a different one.
Data request: // query T1/2 value for entry H1H742N (antibody, V domains shown) VH: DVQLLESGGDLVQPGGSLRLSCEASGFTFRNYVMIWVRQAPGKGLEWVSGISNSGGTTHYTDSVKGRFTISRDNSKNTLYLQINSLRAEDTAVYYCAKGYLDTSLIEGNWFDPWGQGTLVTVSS VL: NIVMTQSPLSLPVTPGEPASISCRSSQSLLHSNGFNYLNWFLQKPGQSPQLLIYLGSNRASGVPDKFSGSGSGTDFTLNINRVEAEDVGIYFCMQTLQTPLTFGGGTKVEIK
Data returned: 1.55
